B1: MFF (parent)
chain: MAEISRIQYEMEYTEGISQRMRVP

variants of: B1; experiment: protein stability index of a GFP-peptide fusion (GPS, HEK-293T) (PSI 1-6); higher = more stable; details: c terminus: a fixed tail appended;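 note: lentivirally expressed fusions sorted by FACS into six bins by GFP to DsRed ratio, PSI derived from sequencing read proportions per bin multiplied by bin number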
Each entry below lists one item and its recorded protein stability index value.
// return just the number, without any unit appended

M11C : 3.04
Q19L : 1.41

Please look at the following variant next.
Input line: Quick one: protein stability index of `E12F` ?
Output line: 1.34
